# experimental_details: yeast display, Sf9 membrane polyspecificity reagent, FACS + sequencing; frameworks hold sequencing errors
endpoint_label: polyreactivity (PSR sort gate)

- seq_string: "QVQLVESAGGLVQAGGSLRLSCAASGFTFREYAMGWYRQAPGKERELVADIDWSGGSTYYADSVKGRFTISRDNAKNTFYLQMNSLKPEDTAVYYCAKAYYPGVYWGQGTQVTVSS"
  polyreactivity (PSR sort gate): "high polyreactivity"
- seq_string: "QVQLVESGGGLVQAGGSLRLSCAASGSTFYGYAMGWNRQAPGKERELVADIDSIAGSTYYADSVKGRFTISRDNAKNTVYLQMNSLKPEDTAVYYCAARRFDTALVLYDYWGQGTQVTVSS"
  polyreactivity (PSR sort gate): "low polyreactivity"
- seq_string: "QVQLVESGGGLVQAGGSLRLSCAASGSIFYYYAMGWSRQAPGKERELVAAITWRGGRTYYADSVKGRFTISRDNAKNTVYLQMNSLKPEDTAVYYCAADSRYYQYIYIHGYDYWGQGTQVTVSS"
  polyreactivity (PSR sort gate): "high polyreactivity"
- seq_string: "QVQLVESGGGLVQAGGSLRLSCAASGNIFSDYAMGSYRQAPGKERELVAAISSGGNTNYADSVKGRFSISRDNAKKTVYLQMNSLKPEDTAVYYCAAFYNTTYTLLPAYSDVNYYYWGQGTQVTVSS"
  polyreactivity (PSR sort gate): "low polyreactivity"
- seq_string: "QVQLVESGGCLVQAGGSLRLSCAASGFTFYWYTMGWYRQAPGKERELVAAISRSGGDTDYADSVKGRFTISRDTAKNTVYLQMDSLQPEDTAVYYCNAGYFITHNYKYDYGGQGTQVTVSS"
  polyreactivity (PSR sort gate): "low polyreactivity"

[Q] Name the recorded polyreactivity (PSR sort gate) for QVQLVESGGGLVQAGGSLRLSRAASGFTFPAYTMGWYRQAPGKERELVAAITSSGGNTYYADSVKGRFTISRDNAKHTVYLQMNSLKPEDTAVYYCATVSVRWPSNDHVRYDYWGQGTQVTVSS .
[A] low polyreactivity

[Q] Could you share which polyreactivity (PSR sort gate) value was measured for QVQLVESGGGLVQAGGSLRLSCAASGSTFGHYAMGCYRQAPGKERDLVAAISWSGASTYYADSVKGRFTISRDNAKNTVYLQMNSLKPEDTAVYYCAAESYRQTYYVGDGYEDDYWGQGTQVTVSS ?
[A] low polyreactivity

[Q] Can you share its polyreactivity (PSR sort gate)? I mean this sequence: QVQLVESGGGLVQAGGSLRLSCAASGRTFGLYAMGWYRQAPGKERELVAAISYSGGRTYYADSVKGRFTISRDNAKKTVYLQMNILKPEDTAVYYCNKAWFRYYYYRFDYWGLGTQVTVSS
[A] high polyreactivity

[Q] Please look up its polyreactivity (PSR sort gate): QVQLVESGGGLVQAGGSLRLSCAASGFTIQRYAMGWYRQAPGKERELVAAITSGGSTYYADSVKGSFTISRDNAKNTVYFQMNSLKPEDTSVYYCATRAVWSSWGRRYDSWGQGTQVTVSS
[A] high polyreactivity

[Q] // returns reported polyreactivity (PSR sort gate) for input QVQLVESGGGLVQAGGSLRLSCAASGRTFFYYTMGWYRQAPGKERELVAAITGSGTRTYYADSVKGRFTISRDNAKNTVYYQMNSLKPEDTAVYYCAAGYSDFSGQQVYYWGQGTQVTVSS
[A] high polyreactivity

[Q] Would you mind telling me what polyreactivity (PSR sort gate) value was observed for QVQLVVSGGGLVQAGGSLRLSCAASGFTFGYYAMGWYRQAPGKERELVAAITASGARTYYADSVKGRFTISRDNAKNTVYLQMNSLKPEDTAVYYCAAYTNAYRERWPDYGYWGQGTQVTVSS ?
[A] high polyreactivity
